Values compiled from ChEMBL document CHEMBL4665688.

Consider the following compounds and their measured Vd readings.
- TEST: Volume of distribution at steady state in Sprague-Dawley rat at 0.5 mg/kg, iv
- Assay type: ADME, organism-based
- TEST_PARAMETERS: in vivo, read-out: Vdss
# number only, unit L/kg dropped from output

For the compound `C[C@H](Nc1nc(Cl)nc2c1cnn2[C@@H]1O[C@H](COP(=O)(O)CP(=O)(O)O)[C@@H](O)[C@H]1O)c1ccccc1` , what Vd is on record?
0.12

Consider next the compound `C[C@H](Nc1cc(Cl)nc2c1cnn2[C@@H]1O[C@H](COP(=O)(O)CP(=O)(O)O)[C@@H](O)[C@H]1O)c1ccc(F)cc1` in the same way.
0.12

Similarly, `C[C@H](Nc1cc(Cl)nc2c1cnn2[C@@H]1O[C@H](COP(=O)(O)CP(=O)(O)O)[C@@H](O)[C@H]1O)c1ccccc1F` ?
0.12
